Source: PubChem BioAssay (NCI)

TGI values by entry
- Tested on: MDA-MB-435
- Protocol notes: NCI tumour cell line growth inhibition, 48 h

// known answers, use as guide
{"Molecule": "CC(C)c1cccc(C(C)C)c1NC(=O)/C(CC(=O)CC(c1ccccc1)c1c(O)c2ccccc2oc1=O)=N/O (stereo not drawn)", "TGI": "> 100 µM"}
{"Molecule": "O=C1C=CC(=O)N1n1c(-c2ccccc2)n[nH]c1=O", "TGI": "> 100 µM"}

Now consider the entry below.
Give the measured TGI of N#C/C(=C/n1c(=S)[nH]c2ccc([N+](=O)[O-])cc21)C(N)=O .
> 100 µM

----------
TGI values by entry
- Test system: PC-3 prostate
- Protocol notes: NCI tumour cell line growth inhibition, 48 h
Please give a number only; it is taken to be in µM.

// known answers, use as guide
{"Smiles code": "COc1ccc(-c2ccc(-c3ccc(C(=N)N)cn3)o2)cc1", "Meas value": 18}
{"Smiles code": "C/C(Cl)=N\\OC(=O)Nc1ccc(C)cc1", "Meas value": 29.3}

Give the measured TGI of CCCCC1=C(C(=O)N2CCOCC2)C2(OCCO2)C1=O .
98.3

----------
- Tested on: SNB-75 CNS
- Protocol notes: NCI tumour cell line growth inhibition, 48 h
TGI values by entry
Please give a number only; it is taken to be in µM.

Give the measured TGI of Nc1ccccc1C#C/C=C\C#Cc1ccccc1[N+](=O)[O-] .
58.3

Give the measured TGI of CCOP(=O)(OCC)OC(C#N)c1ccc(-c2ccccc2)cc1 (stereo not given) .
64.6

Give the measured TGI of COc1ccccc1C1Nn2c(nc3ccccc3c2=O)N1c1ccc(C)cc1 (stereo not given) .
30.5

----------
- System: MOLT-4 leukemia
- Protocol notes: NCI tumour cell line growth inhibition, 48 h
Measure name: TGI

// known answers, use as guide
{"Compound": "Cc1cc(C)c2c(=O)cc(-c3cccc(F)c3)[nH]c2n1", "Measure name": "TGI", "Meas value": "> 53.5 µM"}
{"Compound": "COC(=O)/C(=N\\NC(C)(C)C)C(C(=O)C(=O)Nc1cc(C)ccc1C)c1nc2ccccc2[nH]c1=O (configuration not stated)", "Measure name": "TGI", "Meas value": "> 100 µM"}
{"Compound": "COc1ccc2cc(-c3c(-c4ccncc4)nc(-c4ccc(S(C)(=O)=O)cc4C)n3C)ccc2c1", "Measure name": "TGI", "Meas value": "> 25 µM"}

Give the measured TGI of CC(C)(C)OC(=O)NC(Cc1ccccc1)NC(=O)NC(=O)OCc1ccccc1 (configuration not stated) .
> 100 µM

----------
TGI values by entry
- Tested on: SK-MEL-28 melanoma
- Protocol notes: NCI tumour cell line growth inhibition, 48 h

// known answers, use as guide
{"Compound": "COc1cc(C(=O)Nc2cc3c(cc2Oc2cc(C)cc(C)c2)C(=O)N(C)[C@@H](CC(=O)N(C)O)C(=O)N3)c(Br)c(OC)c1OC", "Measure name": "TGI", "Meas value": "< 0.00333 µM"}
{"Compound": "O=C1c2cc(Cl)ccc2-c2c1c1ccc([N+](=O)[O-])cc1c(=O)n2CCCBr", "Measure name": "TGI", "Meas value": "> 100 µM"}

Give the measured TGI of CCc1c(CNc2ccc(C(=O)NC(CC(=O)O)C(=O)O)cc2)ccc2nc(N)nc(N)c12 (stereo not drawn) .
> 1000 µM

----------
- Tested on: SF-268 CNS
- Protocol notes: NCI tumour cell line growth inhibition, 48 h
TGI values by entry

API: value(readout=TGI, system=SF-268 CNS) for record CN(C)/N=C(/c1nc2ccc(Cl)cc2[nH]c1=O)C(O)c1ccc(C(O)/C(=N\N(C)C)c2nc3ccc(Cl)cc3[nH]c2=O)cc1 (stereo unspecified)
> 100 µM

API: value(readout=TGI, system=SF-268 CNS) for record COC1C2C=CC(C2)[C@H]1[N+](=O)[O-] (stereo partly specified)
> 100 µM

API: value(readout=TGI, system=SF-268 CNS) for record Cc1cc2c(cc1Cl)SC1=NN(C)C(N(C)C)N1S2(=O)=O (stereo unspecified)
> 100 µM

API: value(readout=TGI, system=SF-268 CNS) for record O=[N+]([O-])c1cnn(C2=CNc3ccccc3N=C2)c1
> 100 µM

API: value(readout=TGI, system=SF-268 CNS) for record CSc1cc(=O)n2c3ccccc3c3ccnc1c32
> 75.5 µM

API: value(readout=TGI, system=SF-268 CNS) for record O=C1C=CC(=O)c2c(O)c(N3CCC[C@H]3CO)c(Cl)c(O)c21
> 10 µM

----------
- System: HS 578T breast
- Protocol notes: NCI tumour cell line growth inhibition, 48 h; in the data active means GI50 below about 0.43 µM; inactive means the rest
Write down the outcome that applies. Available outcomes: t = active, f = inactive

{"Compound": "CCOC(=O)/C=C/C1=C(c2cccs2)c2ccccc2CC1", "Cat": "f"}

Entry COc1ccc(Cn2cc3c(c2)-c2oncc2CC3)cc1 : call = ?
f

Entry Cc1nc2sccn2c1-c1csc(Nc2cccc(Cl)c2C)n1 : call = ?
f

Entry Nc1ccccc1C#C/C=C\C#Cc1ccccc1[N+](=O)[O-] : call = ?
f

Entry COc1ccc2[nH]c(O)c(C(=Nc3ccc(N(C)C(=O)CN4CCN(C)CC4)cc3)c3ccccc3)c2c1 : call = ?
f

Entry O=C1c2cc(Cl)ccc2-c2c1c1ccc([N+](=O)[O-])cc1c(=O)n2CCCBr : call = ?
f

Entry NC(N)=NCCC1OC(=O)C2=C1c1c(O)ccc3nccc(c13)O2 (stereo not drawn) : call = ?
f

Entry COc1cc(C(=O)Nc2cc3c(cc2Oc2cc(C)cc(C)c2)C(=O)N(C)[C@@H](CC(=O)N(C)O)C(=O)N3)c(Br)c(OC)c1OC : call = ?
t

----------
- Tested on: T-47D breast
- Protocol notes: NCI tumour cell line growth inhibition, 48 h
TGI values by entry

{"Molecule": "CCCCC1=C(C(=O)N2CCOCC2)C2(OCCO2)C1=O", "TGI": "> 100 µM"}
{"Molecule": "CS(=O)(=O)Nc1ccc2c(c1)N(S(C)(=O)=O)CC2CCl (stereo not drawn)", "TGI": "> 100 µM"}

Now consider the entry below.
API: value(readout=TGI, system=T-47D breast) for record Cc1cc2c(O)c(c1)CN(CC(=O)O)Cc1cc(C)cc(c1O)CN(CC(=O)O)Cc1cc(C)cc(c1O)CN(CC(=O)O)C2
> 100 µM

----------
TGI values by entry
- System: SF-295 CNS
- Protocol notes: NCI tumour cell line growth inhibition, 48 h

// known answers, use as guide
{"Smiles code": "O=C(O)c1cccc2cccc(-c3cccc4cccc(C(=O)O)c34)c12", "Meas value": "> 100 µM"}
{"Smiles code": "Cc1ccc2c(c1)-c1c(C#N)c(N)nc(-c3ccc(Cl)cc3)c1CCS2(=O)=O", "Meas value": "> 100 µM"}

Now consider the entry below.
Give the measured TGI of C=C1OC(c2ccccc2NC)=NC12CCCCC2 .
> 100 µM

----------
- System: SF-295 CNS
- Protocol notes: NCI tumour cell line growth inhibition, 48 h; in the data active = GI50 below about 0.43 µM; inactive = the rest
Write down the outcome that applies. Available outcomes: active, inactive

{"Molecule": "COc1cc(C(=O)Nc2cc3c(cc2Oc2cc(C)cc(C)c2)C(=O)N(C)[C@@H](CC(=O)N(C)O)C(=O)N3)c(Br)c(OC)c1OC", "System tested": "SF-295 CNS", "Cat": "active"}
{"Molecule": "Nc1ccccc1C#C/C=C\\C#Cc1ccccc1", "System tested": "SF-295 CNS", "Cat": "inactive"}
{"Molecule": "O=C(O)C1CCCCC1C(=O)O.[NH-]C1CCC1.[NH2-].[Pt+2] (centres undefined)", "System tested": "SF-295 CNS", "Cat": "inactive"}

Now examine the next entry.
Entry COc1ccc(Cn2cc3c(c2)-c2oncc2CC3)cc1 : call = ?
inactive

----------
TGI values by entry
- Test system: OVCAR-4 ovarian
- Protocol notes: NCI tumour cell line growth inhibition, 48 h

{"Compound": "COC(=O)Cc1ccc2c(cnn2-c2ccccc2)c1OC", "Measure name": "TGI", "Meas value": "> 10 µM"}

Now consider the entry below.
Give the measured TGI of Cc1ccccc1C1=C(C(=O)Nc2ccc(Cl)c(Cl)c2)NC(=S)NC1N (configuration not stated) .
> 100 µM

----------
- System: HOP-92 NSCLC
- Protocol notes: NCI tumour cell line growth inhibition, 48 h
Measure name: TGI

Give the measured TGI of N#CC1(O)CCCCCCCCCCC1 .
> 100 µM

Give the measured TGI of Nc1nc(Cl)cc(NCC2(O)CC2)n1 .
> 100 µM

Give the measured TGI of O=C(/C=C/C(=O)N1CCCC1)N1CCCC1 .
> 100 µM

----------
- Test system: K-562 leukemia
- Protocol notes: NCI tumour cell line growth inhibition, 48 h; in the data active = GI50 below about 0.43 µM; inactive = the rest
Write down the outcome that applies. Available outcomes: T = active, F = inactive

{"Compound": "NC(=O)c1cc2c3ccccc3ccn2c1-c1ccccc1", "System tested": "K-562 leukemia", "Cat": "T"}

Entry O=C(O)c1ccc2c(c1)CCCC(c1ccc(Cl)cc1Cl)=C2c1ccc(O[C@H]2CCN(CCCF)C2)cc1 : call = ?
F

Entry Cc1ccc2nc(-c3ccc(N(C)C)c(Br)c3)cn2c1 : call = ?
F

Entry CCn1c(-c2nonc2N)nc2c(C#CC(C)(C)O)nc(OCCNC)cc21 : call = ?
F

Entry COc1cc(S(=O)(=O)Nc2ccc(C(=O)/C=C/c3ccc(O)cc3)cc2)ccc1F : call = ?
F

Entry O=C1NC(=S)S/C1=C(/C=C(\CC(=O)c1ccccc1)c1ccc(Cl)cc1)c1ccccc1 : call = ?
F

Entry N#CCCN(CCC#N)c1ccc(C(Sc2ccccc2)C(NC(=O)c2cc([N+](=O)[O-])ccc2Cl)C(=O)Sc2ccccc2)cc1 (centres undefined) : call = ?
F

Entry Cc1ccc(-c2csc(NC(=O)CN3CCN(c4cc5c(cc4F)c(=O)c(C(=O)O)cn5C4CC4)CC3)n2)cc1 : call = ?
F

Entry COc1cc(C(=O)Nc2cc3c(cc2Oc2cc(C)cc(C)c2)C(=O)N(C)[C@@H](CC(=O)N(C)O)C(=O)N3)c(Br)c(OC)c1OC : call = ?
T
